# Target Of Assay: GlcNAc(b1-6)GalNAc
# Experiment: glycan array binding signal (z-score within array); higher = stronger binding
# Setup Conditions: glycan notation: IUPAC condensed, linker removed
This is one part of a sample in which the strongest signals are shown more often than they occur.
Assay Readout: glycan array binding signal (z-score)

Binder	Readout Value
DC-ASGPR S+GEE (Homo sapiens) (protein) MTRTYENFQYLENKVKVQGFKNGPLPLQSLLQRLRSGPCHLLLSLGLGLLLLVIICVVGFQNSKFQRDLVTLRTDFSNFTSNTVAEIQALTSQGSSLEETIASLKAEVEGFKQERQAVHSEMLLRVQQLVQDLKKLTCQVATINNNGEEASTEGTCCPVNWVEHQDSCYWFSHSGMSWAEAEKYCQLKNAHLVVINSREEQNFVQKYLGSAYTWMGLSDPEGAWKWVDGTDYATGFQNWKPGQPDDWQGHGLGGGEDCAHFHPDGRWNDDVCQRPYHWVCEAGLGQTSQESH	3.74
